- Measured Target: human TLR7 (Homo sapiens, UniProt Q9NYK1)
- Construct: host or cells: HEK-Blue TLR7 cells (engineered human embryonic kidney cells)
- Sequence (Q9NYK1 27-1049): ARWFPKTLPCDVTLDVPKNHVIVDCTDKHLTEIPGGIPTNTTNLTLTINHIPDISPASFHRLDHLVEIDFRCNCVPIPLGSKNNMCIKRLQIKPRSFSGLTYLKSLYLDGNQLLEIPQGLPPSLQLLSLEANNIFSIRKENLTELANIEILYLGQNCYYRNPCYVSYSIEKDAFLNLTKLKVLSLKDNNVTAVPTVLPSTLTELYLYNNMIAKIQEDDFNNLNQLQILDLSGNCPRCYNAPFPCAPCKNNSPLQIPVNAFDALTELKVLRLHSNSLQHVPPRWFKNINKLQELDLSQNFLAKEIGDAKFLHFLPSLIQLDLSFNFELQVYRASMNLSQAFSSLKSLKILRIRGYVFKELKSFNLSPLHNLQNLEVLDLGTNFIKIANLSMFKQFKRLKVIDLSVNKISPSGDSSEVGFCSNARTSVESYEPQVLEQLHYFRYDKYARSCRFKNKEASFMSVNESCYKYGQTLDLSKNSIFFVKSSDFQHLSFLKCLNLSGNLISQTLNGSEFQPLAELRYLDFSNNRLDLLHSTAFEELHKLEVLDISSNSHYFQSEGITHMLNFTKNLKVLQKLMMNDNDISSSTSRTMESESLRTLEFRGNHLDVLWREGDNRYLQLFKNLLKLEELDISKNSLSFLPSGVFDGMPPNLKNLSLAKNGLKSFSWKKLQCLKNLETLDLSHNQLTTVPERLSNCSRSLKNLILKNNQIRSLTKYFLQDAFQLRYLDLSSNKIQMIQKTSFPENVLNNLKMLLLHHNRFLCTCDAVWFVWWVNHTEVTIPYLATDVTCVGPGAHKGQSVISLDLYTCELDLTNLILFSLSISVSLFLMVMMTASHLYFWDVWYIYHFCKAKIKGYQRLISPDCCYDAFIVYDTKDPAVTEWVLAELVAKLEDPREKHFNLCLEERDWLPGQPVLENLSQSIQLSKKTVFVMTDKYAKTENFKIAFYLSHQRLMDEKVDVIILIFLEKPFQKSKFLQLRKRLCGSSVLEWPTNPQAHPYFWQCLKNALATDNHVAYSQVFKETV
- Protocol Summary: HEK-Blue TLR7 reporter assay (human TLR7 agonist activity, SEAP reporter)
- Format: cell-based
- Test Context: Table A, formula IIa compounds; HEK-Blue TLR7 cells, 18 h treatment, SEAP read-out
Mark Y only for EC50 values smaller than 300 nM; exact matches and larger values are N.

{"columns": ["Compound", "Class Label"],
 "data": [
  ["CCCCNc1nc(N)nc2cn(Cc3ccc(CNCC4CC(O)C4)cc3OC)nc12 (centres unmarked)", "Y"],
  ["CCCCNc1nc(N)nc2cn(Cc3ccc(CNC4CCC4)cc3OC)nc12", "N"],
  ["CCCCNc1nc(N)nc2cn(Cc3ccc(CN4CCCC4)cc3OC)nc12", "N"],
  ["CCCCNc1nc(N)nc2cn(Cc3ccc(CN4CCCCC4)cc3OC)nc12", "N"],
  ["CCCCNc1nc(N)nc2cn(Cc3ccc(CNCCOC)cc3OC)nc12", "Y"],
  ["CCCCNc1nc(N)nc2cn(Cc3ccc(CN4CC5CC4CN5)cc3OC)nc12 (centres unmarked)", "N"],
  ["CCCCNc1nc(N)nc2cn(Cc3ccc(CN4CCN(CCO)CC4)cc3OC)nc12", "Y"],
  ["CCCCNc1nc(N)nc2cn(Cc3ccc(CNC(C)(C)C)cc3OC)nc12", "N"],
  ["CCCCNc1nc(N)nc2cn(Cc3ccc(CO)cc3OC)nc12", "N"],
  ["CCCCNc1nc(N)nc2cn(Cc3ccc(CNC4(CO)CCCC4)cc3OC)nc12", "N"]
]}

Numbers sourced from patent US11400094B2.
